Molecular target: Vasopressin V2 receptor (Rattus norvegicus, UniProt Q00788)
Sequence (Q00788 whole entry): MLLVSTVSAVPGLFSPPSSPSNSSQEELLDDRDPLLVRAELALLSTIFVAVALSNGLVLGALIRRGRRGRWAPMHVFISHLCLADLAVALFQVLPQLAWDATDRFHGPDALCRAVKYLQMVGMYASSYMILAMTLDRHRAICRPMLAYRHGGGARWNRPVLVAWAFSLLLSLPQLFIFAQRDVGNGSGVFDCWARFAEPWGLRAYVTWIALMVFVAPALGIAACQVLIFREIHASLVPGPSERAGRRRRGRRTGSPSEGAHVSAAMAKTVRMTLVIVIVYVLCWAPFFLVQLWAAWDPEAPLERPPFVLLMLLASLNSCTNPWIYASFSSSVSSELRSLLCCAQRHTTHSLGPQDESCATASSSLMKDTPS
Assay: In vivo antidiuretic V2-antagonistic activity was measured as changes in urine flow in water-loaded rats and is expressed as the negative logarithm of the ''effective dose divided by the estimated volume of distribution (67 mL/kg)
Format: functional, organism-based
Settings: read-out: pA2 (converted)
*1 amine or outer side, *2 acyl side, *3 side chain or, on linkers, in order; H or OH if unused. Where a SMILES comes first, the peptide text is derived from it. Bridges are numbered along the chain shown (N, C = ends). Ethylenediamine = C(CN[*:2])N[*:1]; X1 = O=C(CC1(S[*:2])CCCCC1)[*:1]
experimental_endpoint: Kb

COc1ccc(C[C@@H]2NC(=O)CC3(CCCCC3)SSC[C@@H](C(=O)N3CCC[C@H]3C(=O)N[C@@H](CCCN=C(N)N)C(=O)NCCN)NC(=O)[C@H](CC(N)=O)NC(=O)[C@H](CCC(N)=O)NC(=O)[C@H](Cc3ccccc3)NC2=O)cc1 (Y(Me)FQNCPR-Ethylenediamine; linker N-5 via X1) :: ~501 nM

[in] Complete the entry with Kb for COc1ccc(C[C@@H]2NC(=O)CC3(CCCCC3)SSC[C@@H](C(=O)N3CCC[C@H]3C(=O)N[C@@H](CCCN=C(N)N)C(=O)N[C@@H](Cc3ccc(O)cc3)C(N)=O)NC(=O)[C@H](CC(N)=O)NC(=O)[C@H](CCC(N)=O)NC(=O)[C@H](Cc3ccccc3)NC2=O)cc1 (Y(Me)FQNCPRY-NH2; linker N-5 via X1)
[out] ~1000 nM

[in] Complete the entry with Kb for COc1ccc(C[C@@H]2NC(=O)CC3(CCCCC3)SSC[C@@H](C(=O)N3CCC[C@H]3C(=O)N[C@@H](CCCN=C(N)N)C(=O)NCC(=O)NCCN)NC(=O)[C@H](CC(N)=O)NC(=O)[C@H](CCC(N)=O)NC(=O)[C@H](Cc3ccccc3)NC2=O)cc1 (Y(Me)FQNCPRG-Ethylenediamine; linker N-5 via X1)
[out] ~251 nM

====

Biological target: Vasopressin V2 receptor (Rattus norvegicus)
Experiment: Dose that reduces urine flow in water-loaded rats
Assay type: functional
experimental_endpoint: Effective dose (nM/kg)
All answers are understood in nM/kg, so give the number only.

[in] Complete the entry with Effective dose for CN1C(=O)CC2(CCCCC2)SSC[C@H](C(=O)N2CCC[C@H]2C(=O)N[C@@H](CCCN=C(N)N)C(=O)NCC(=O)NCCN)NC(=O)[C@@H](CC(N)=O)NC(=O)[C@H](CCC(N)=O)NC(=O)[C@@H](Cc2ccccc2)NC(=O)[C@@H]1Cc1ccc(O)cc1
[out] 16

[in] Complete the entry with Effective dose for CN1C(=O)CC2(CCCCC2)SSC[C@H](C(=O)N2CCC[C@H]2C(=O)N[C@@H](CCCN=C(N)N)C(=O)NCCN)NC(=O)[C@@H](CC(N)=O)NC(=O)[C@H](CCC(N)=O)NC(=O)[C@@H](Cc2ccccc2)NC(=O)[C@@H]1Cc1ccc(O)cc1
[out] 33

[in] Complete the entry with Effective dose for CC(C)[C@H](NC(=O)[C@H](CCCN=C(N)N)NC(=O)[C@@H]1CCCN1C(=O)[C@H]1CSSC2(CCCCC2)CC(=O)N(C)[C@@H](Cc2ccc(O)cc2)C(=O)N[C@H](Cc2ccccc2)C(=O)N[C@@H](CCC(N)=O)C(=O)N[C@H](CC(N)=O)C(=O)N1)C(N)=O
[out] 115
